# assay_notes: yeast display, Sf9 membrane polyspecificity reagent, FACS + sequencing; frameworks hold sequencing errors
assay_readout: polyreactivity (PSR sort gate)

QVQLVESGGGLVQAGGSLRLSCAASGRIFVYYTMGWYRQAPGKERELVAAITGSGGSTYYADSVKGRFTISRDNAKNTVYLQMNSLKPEDTAVYYCAVYDSYRKFKYWGQGTQVTVSS: high polyreactivity
QVQLVESGGGLVQAGGSLRISCAASGSTIAGYTMGLYRQAPGKEMELVAAISRRGSRTYYADSVKGRFTISRDNAKNTVYLQMNSLKPEDTAVYYCNARNRVYYTLSGYGYWGQGTQVTVSS: high polyreactivity

###

# assay_notes: yeast display, Sf9 membrane polyspecificity reagent, FACS + sequencing; frameworks hold sequencing errors
assay_readout: polyreactivity (PSR sort gate)

QVQLVESGGGLVQAGGSLRLSCAASGSIFRRNAMGWYRQAPGKERELVAAISYSGGSTYYADSVKGRFTISRDNAKNTVYLQMNSLKPEDTAVYYCAADLYYGFGGYYYWGQGTQVTVSS: high polyreactivity
QVQLVDSGGGLVQAGGSLRLSCAASGSTFSRYAMGWYRQARGKERELVAAITDGGDSTYYADSVKGRFTISRDNAKNTVYLQMNSLKPEDTAGYYCNADRLQYGRTPHYDYWGQGTQVTVSS: low polyreactivity
QVQLVESGGGLVQAGGSLRIICAASGRTFATYAMGWYRQAPGKERELVAVISRSGGRTYYADSVKGRFTISRDNAKNTVYLQMNSLKPEDTAVYYCAASYGPSTWTSSYYYWGQGTQVTVSS: high polyreactivity
QVQLVESGGGLVQAGGSLRLSCAASGRIFAYYAMGWYRQAPGTERELVALISSTGGSTYYADSVKGRFTISRDNAKNTVYLQMNSLKPEDTAVYYCNKQVTGAERFQGHGAYYWGQGTQVTVSS: high polyreactivity

Please turn your attention to the following entry.
Recorded polyreactivity (PSR sort gate) of QVQLVESGGALVQAGGSLRLSCAASGSIFPANPMGWYRQAPGKEWEFVAAINWSTGTTYYADSVKGRFTISRDNGKNTVYLQMNSLKPEDTAVYYFNASDQAKYDYWGQGTQVTVSS , please.
low polyreactivity

###

# assay_notes: yeast display, Sf9 membrane polyspecificity reagent, FACS + sequencing; frameworks hold sequencing errors
assay_readout: polyreactivity (PSR sort gate)

Below, each entry is followed by its recorded polyreactivity (PSR sort gate) result.
QVQLVESGGGLVQAGGSHRLSCAASGSIFRQNAMGWYRQAPGKERELVAAITRGGGGTTYYADSVKGRFTISRDNAKNTVYLQMNSLKPEDTAVYYCAKAYEVRVEVDYWGQGTQVTVSS: low polyreactivity
QVQLVESGGGLVQAGGSLRLSCAASGLIFYRNAMGWYRQAPGKERELVAGITRGSNTYYADSVKGRFTISRVNAKNTVYLQMNSLKPEDTAVYYCAAQVPVLQRAGNTRFGYWGQGTQVTVSS: low polyreactivity
QVQLVESGGGLVQAGGSLRISCAASGFIFGWYAMGWYRQAPGKERELVAVIRSGGRTNYADSVKGRFTISRDNAKNTVYLQMNSLKPEDTAVYYCNAVGGRGYGGGYWGQGTQVTVSS: high polyreactivity
QVQLVESGGGLVQAGGSLRLSCSPSGSIFVSYTMGWYRQAPGKERELVAAISSGGSTYYADSVKGRFTITRDNAKNTVYLQMNSLKPEDTAVYYCARRLTREYDYWGQGTQVTVSS: low polyreactivity
QVQLVESGVGLVQAGGSVRLSCAASGRTFYRYAMGWYRQAPGKERELVAAISSGGSTYYADSVKGRFTISRDNAKNTVYLQMNSLKPEDTAVYYCNADYGRRNHMDYWGQGTQVTVSS: low polyreactivity
QVQLVESGGGLVQAGGSLRLSCAASGRTFAYNAKGWYRQPPGKERELVASITVGGGSTYYADSVKGRFTISRDNAKNTVYLQMNSLKPEDTAVYYCAARVPSWKYDYWGQGTQVTVSS: high polyreactivity
QVQLVESGGGLVQAGGSLRLSCAASGRTFNGYAMGWSRQAPGKERELVAALTGSVGSTYYADSVKGRFTISRDNAKNPGELQLNSLKPDDTAVYYCATRWKATRARYDYWGQGTQVTVTS: high polyreactivity
QVQLVESGGGLVQAGGSLRLSCAASGLTISYYAMGRYRQAPGKERELVAAISTDSSTNYADSVKGRFTISRDNAKNTVYLQMNSLKPEDTAVYYCAAVPRGTQCAMDYWGQGTQVTVSS: low polyreactivity
QVQLVESGGGLVQAGGSLRLSCAASRIIFYGNAMGWYRQAHGKERELVAAIDQSGDSTYYADSVKGRFTISRDNAKNTVYLQMNSLKPEDTAVYYCAADSLYLAYEYWGQGTQVTVSS: high polyreactivity
QVQLVESGGGLVQAGGSLRLSCAASGSTFSRYAMGWYRQAPGKVRELVAAISWGGNTYYADSVKGRFTISRDNAKNTVYLQMNSLKPEDTAVYYCNRYSKLYNTMDYWGQGTQVTVSS: high polyreactivity

Recorded polyreactivity (PSR sort gate) of QVQLVESGGGLVQAGGSLRLSCAASGFTLANYAMGWYRQAPGKERELVAAIDYSGGGTYYADSVKGRFTISRDNAKNTVYFQMNSLKPEDTAVYYCAARRWSYYSAKYDYWGQGTQVTVSS , please.
low polyreactivity

###

# assay_notes: yeast display, Sf9 membrane polyspecificity reagent, FACS + sequencing; frameworks hold sequencing errors
assay_readout: polyreactivity (PSR sort gate)

QVQLVESGGGLVQAGGSLRLSCAASGIIFTSNTMGWYRQAPGKEREFVASINWNGSSTYADSVKGRFTISRDNAKNTVFLQMNSLKPEDTAVYDCNADYYRNSVQFSLYDYWGHGTQVTVSS: low polyreactivity
QVQLVESGGGLVQAGGSLRLSFAASGRIIGYYAMGWYRQAPGKERELVAAITRGGSTNYADSVKGRFTISRDNAKNTVYLQMNSLKPEDTAVYYCAADLARYGKRYDYWGQGTQVTVSS: low polyreactivity
QVQLVESGGGLVQAGGSLRLSCAAYGLIFAISAMGWYRQAPGKERELVAAIRWSGASTYADSVKGRFTISRDNAKNTVYLQMNSLKTEDTAVYYCAADDLLHYDYWGQGTQVTVSS: low polyreactivity
QVQLVESGGGLVQAGGSLRLSCAASGSTFSHYTMGSYRQAAGKERELVAAITRSGGSTYYADSVKGRFTISRDNAKNTVYLQMNSLKTEDSAVYYSAATRHWNILRYDYWGQGTQVTVSS: low polyreactivity

Please turn your attention to the following entry.
Recorded polyreactivity (PSR sort gate) of QVQLVESGGGLVQAGGSLRLSCAASGRIFAPNAMGWYRQAPGKERELVAAISFSGDSTSYADSVKGRFTISRDNAKNTVYLQMNSLKPEDTAVYYCATDRRVQYPLGPSYDYDYWGQGTQVTVSS , please.
low polyreactivity

###

# assay_notes: yeast display, Sf9 membrane polyspecificity reagent, FACS + sequencing; frameworks hold sequencing errors
assay_readout: polyreactivity (PSR sort gate)

Below, each entry is followed by its recorded polyreactivity (PSR sort gate) result.
QVQLVESGGGLVQAGGSLRLSCAASGSTFGTYVMGWYRQAPGKERELVAAITYSGGSTYYADSVTGRFTISRDNAKNTVYLQMNSLKPEDTAVYYCNADVWSYWYKFDYWGQGTQVTVSS: high polyreactivity
QVQLVESGGGLVQAGGSLRLSCAASGLTFPYYSMGWYRQAPGKERVLVAAITKSGGSTYADSVKGRFTISRDNAKNTVYLQMNSLKPEDTAVYYCAAGRRKYGTKGRGDYWGQGTQVTVSS: low polyreactivity
QVQLVESGGGLVQAGGSLRLSCAASGFIFGHYAMGWYRQAPGKERELVAAIRSRGGDRTYADSVKGRFTISRDNAKNTVYLQMNSLKPEDTAVYYCAADGPGTSEDDYWGQGTQVTVSS: high polyreactivity
QVQLVESGGGLLQAGRSLRLSCAASGSIIWLYAMGWYRQAPGKERELVAAISWTGTSTNYADSVKGRFTISRDYAKNTVYLQMNSLKPEDTAVYYCAKRWYNQKLFGYEDEYDYWGQGTQVTVSS: low polyreactivity

Please turn your attention to the following entry.
Recorded polyreactivity (PSR sort gate) of QDKLVESAGGLVQAGGSLRLSCADSGSIFPFNAMALNRQATGKVREMVASITSGGTTYYADSLKGRFTISRDNAKNTVYLQMNSLKPEDTAVYYFAGDWVWRVLNSYGVRYDYWGQGTQVTVSS , please.
low polyreactivity

###

# assay_notes: yeast display, Sf9 membrane polyspecificity reagent, FACS + sequencing; frameworks hold sequencing errors
assay_readout: polyreactivity (PSR sort gate)

QVQLVESGGGLVQAGGSLRLSCAASGFIFKFNAMGWYRQAPGKERELVAAINYSAGSTYYADSVKGRFTISRDNAKNTVYLKMNSLKPEDTAVYYCNALYTYGWYSDDYWGQGTQVTVSS: high polyreactivity
QVQLVESGGGLVQAGGSLRLSCAASGSTFSGYAMGWYRQAPGKERELVAAISRRGTSTYYADSVKGRFTISRDNAKNTVYLQMNSLKPEDTAVYYCAARPSGYVIGGYGYWGQGTQVTVSS: high polyreactivity
QVQLVESGGGLVQAGGSLRLSCAASGFTICTYAMGWYRQAPGKERELVAAIDSGGSTYYADSVMGRFTISRDNAKTTVYLQMNSLKPEDTAVYYCNAGPSVTSGYDYDYWGQGTQVTVSS: low polyreactivity
QVQLVESGGGLVQAGGSLRLSCAASGSIFNPYVMGWYRQAPGKERELVAAISSSGGRTYYADSVKGRFTLSRDNAKNTVDFQMNSLKPEDTAVYYCAAKPRQGYDYWGQGTQVTVSS: high polyreactivity
QVQLVESGGGLVQAGGSLRLSWAASGSTFYPYAMGWYRPAPGKERELVAAISSSSSTNYADSVKGRFTISRDNAKNTVYLQMNSLKPEDTAVYYCAVTRVIESKQIRYDYWGQGTQVTVSS: low polyreactivity
QVQLVDSGGGLVQAGGSLRLSCAASGFTFRYYAMGWYRQAPGKERELVAAISSSGTRTYYADSVKGRFTISRDNAKTTVYLQMNSLKPEDTAVYYCNAVSPTSTVDYWGQGTQVTVSS: high polyreactivity

# per-item lookup of polyreactivity (PSR sort gate); items listed below
1. QVQLVESVGGLVQAGASLRLSCAASGLNIYTYAMGWYRQAPGKERELVAAIRWRGGRTYYADSVNGRFTISRDNAKNTVYLQMNSLKPEDTAVYYCAADYSNLYKSDYWGQGTQVTLSS
2. QVQLVESGGGLVQAGGSLRLSCAASGSTFYYNAMGWYRQAPGKERELVAAITWGGGSTYYADSVKGRFTISRDNAKNTVYLQMNSLKPEDTAVYYCNAEDYVWYYYYYDIYDYWGQGTQVTVSS
3. QVQLVESGGGLVQAGGSLRLSCAASGRIFRINAMGWYRQAPGKERELVASISRRGGNTYYADSVKGRFTISRDNAKNTVYLQMNSLKPEDTAVYYCAADTNQERTFDYWGQGTQVTVSS
4. QVQLVESGGGLDQAGGSLRLSCAASGFIFTVYAMGWYRQAPGKEREVVAAISSGGSTYYADSVKGRFTISRDNAKNTVYLQMNSLKPEDTADYYCAAQPSYRYYKSYDSWGQGTQVTVSS
5. QVQLVESGGGLVQAGGSLRLSCAASGRIFLWYAMGWYRQAPGKERELVAGISSGASTYYADSVKGRFTISRDNAKNTVYLQMNSLKPEDTAVYYCAAPYYRLTGWSRYDYWGQGTQVTVSS
6. QVQLVESGGGLVHAGGSLRLSCAASGSTFGYYAMGWYRQAPGTERELVADINWNGGSTNYADSVKGRFTISRDTEKKTVYLQMNSLKPEDTAVYFCAKGLRPYRFYYWGQGTQVTVSS
7. QVQLVESGGGIVQSGGSLRLSCDASGFIFGGNAMGWYIQAPGKERELVARISSGGITSYADSVKGRFTISRDNAKNTVYLHMNSQKPDDTAVYYCAARNGRIAWMNYWGQGTQVTVSS

low polyreactivity
high polyreactivity
low polyreactivity
high polyreactivity
high polyreactivity
high polyreactivity
low polyreactivity

# per-item lookup of polyreactivity (PSR sort gate); items listed below
1. QVQLVESGGGLVQAGGSLRLSCAASGSIVRFYAMGWYRQAPGKERELVASITSGGSTNYADSVKGRFTISRDNAKNTVYLQMNSLKPEDTAVYYCAVRLKGYRRRDYWGQGTQVTVSS
2. QVQLVESGGGLVQAGGRRRLICAASGSTFVRNAMGWYRQAPGKERELVATISSGGGTKYADSVKGRFTISRDNAKNTVYLQMNSLKPEDTAVYYCAARYRSYAVRLRGYDYWGQGTQVTVSS
3. QVQLVESGGGLVQAGGSLRLSCAASGINFFGYAMGWYRQAPGKERELVAGISRSTGRTYYADSVKGRFTISRDNAKNTVYLQMNSLKQEDTSVYYCAARATRSLSRSMDYWGQGTQVTVSS
4. QVQLVESGGGLVQAGGSLRLSCAATGSTFWPYAMGWYRQAPGKERELVAAIRVIGGSTYYADSVKGRFTISRDNAKNTVYLQMNSLKPEDTAVYYCNAYRPGGARFYARYRYDYCGQGTQVTVSS
5. HVQLEESGGGLVQAGGSLRLSCAASGRIFYPYAMGWYRQAPGKERELVAAISRSGGSTYYADSVKGRFTISRDNAKNTVYLQMNSLKPEDTAVYYCATGFYRAISHHGYDYWGQGTQVTVSS
6. QVQLVESGGGLVQAGGSLRLSCAASGRNFGLNAMGWYRQAPGKERELVAAIDQGDGITYYADSVKGRFTISRDNAKNTVYLQMNSLKTEDTAVYYCAAEVSYKEIYQYYWIYPAYNYWGQGTQVTVSS

1. high polyreactivity
2. high polyreactivity
3. high polyreactivity
4. low polyreactivity
5. low polyreactivity
6. high polyreactivity

# per-item lookup of polyreactivity (PSR sort gate); items listed below
1. QVQHVESGGGLVQAGGSLRLSCAASGRIFVYYALGWYRQAPGKERELVASISYSGASTYYADSVKGRFTISRDNAKNTVYLQMNSLKPEDTAVYYCNTDGDDFFHVIYDYWGQGTQVTVSS
2. QGQLVESGGGEVQAGGSLRLSCAASGFTFGSNAMGWYRPAPGKERELVAAISSTGSTYYADSVKGRFTLSRDNAKNTVYVQMNSLKPEDPAVYYCNADSDTPRYDYWGQGTQVTVSS

low polyreactivity
low polyreactivity
